B1: Peroxisome proliferator-activated receptor delta, residues 71 to 145; numbered along this chain, Q03181 (parent)
chain: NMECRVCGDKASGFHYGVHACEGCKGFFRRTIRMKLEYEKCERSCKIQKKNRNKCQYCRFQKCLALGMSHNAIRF

- Variants of: B1
- experiment-notes: abundance fitness (aPCA) (normalised: wild type 0, dead -1); higher = more abundant; growth selection in yeast, the domain comes from the species named
- condition-parameters: Homo sapiens
Reported values of abundance fitness for individual entries
Quick one: just the number, no unit, thanks!

# input Look up abundance fitness: `C58G`
# output -0.822

# input Given `F75S` , state its recorded abundance fitness.
# output 0.216

# input May I ask what abundance fitness has been recorded for `N51P` ?
# output -0.307

Values from the Human Domainome abundance scans (Beltran et al. 2025)
